This collection of values is drawn from the NIST ThermoML archive (doi:10.1021/je300692s).

The molecules listed here are annotated with their activity coefficient.
test: activity coefficient (dimensionless); of the first substance listed, at infinite dilution; xn = mol fraction of the nth substance listed; settings: 343.1 K; 101 kPa; Liquid; Chromatography; x1 = 0
Give the value as a plain number.

Below: 3 molecules and their reported activity coefficient.
MOLECULE: c1ccncc1 [pyridine] + CCCCCC[N+]1(C)CCCC1.O=S(=O)([N-]S(=O)(=O)C(F)(F)F)C(F)(F)F
QUANTITATIVE READOUT: 0.53

MOLECULE: CC(C)OC(C)C [diisopropyl ether] + CCCCCC[N+]1(C)CCCC1.O=S(=O)([N-]S(=O)(=O)C(F)(F)F)C(F)(F)F
QUANTITATIVE READOUT: 3.53

MOLECULE: Cc1ccc(C)cc1 [1,4-dimethylbenzene] + CCCCCCCC[N+]1(C)CCCC1.O=S(=O)([N-]S(=O)(=O)C(F)(F)F)C(F)(F)F
QUANTITATIVE READOUT: 1.05

For record CCCCCCC [heptane] + CCCCCCCC[N+]1(C)CCCC1.O=S(=O)([N-]S(=O)(=O)C(F)(F)F)C(F)(F)F the listed activity coefficient is 5.13

For record Cc1ccccc1 [toluene] + CCCCCCCC[N+]1(C)CCCC1.O=S(=O)([N-]S(=O)(=O)C(F)(F)F)C(F)(F)F the listed activity coefficient is 0.74

For record CC1CCCCC1 [methylcyclohexane] + CCCCCC[N+]1(C)CCCC1.O=S(=O)([N-]S(=O)(=O)C(F)(F)F)C(F)(F)F the listed activity coefficient is 6.03

For record CCCCCCCCCC [decane] + CCCCCC[N+]1(C)CCCC1.O=S(=O)([N-]S(=O)(=O)C(F)(F)F)C(F)(F)F the listed activity coefficient is 22.7

For record CC(C)CO [2-methyl-1-propanol] + CCCCCCCC[N+]1(C)CCCC1.O=S(=O)([N-]S(=O)(=O)C(F)(F)F)C(F)(F)F the listed activity coefficient is 1.22

For record CO [methanol] + CCCCCC[N+]1(C)CCCC1.O=S(=O)([N-]S(=O)(=O)C(F)(F)F)C(F)(F)F the listed activity coefficient is 0.95

For record CC1CCCC1 [methylcyclopentane] + CCCCCCCC[N+]1(C)CCCC1.O=S(=O)([N-]S(=O)(=O)C(F)(F)F)C(F)(F)F the listed activity coefficient is 2.84

For record Cc1ccccc1C [1,2-dimethylbenzene] + CCCCCC[N+]1(C)CCCC1.O=S(=O)([N-]S(=O)(=O)C(F)(F)F)C(F)(F)F the listed activity coefficient is 1.31

For record Cc1cccc(C)c1 [1,3-dimethylbenzene] + CCCCCCCC[N+]1(C)CCCC1.O=S(=O)([N-]S(=O)(=O)C(F)(F)F)C(F)(F)F the listed activity coefficient is 1.05

For record CC(C)CO [2-methyl-1-propanol] + CCCCCC[N+]1(C)CCCC1.O=S(=O)([N-]S(=O)(=O)C(F)(F)F)C(F)(F)F the listed activity coefficient is 1.65

For record c1ccccc1 [benzene] + CCCCCCCC[N+]1(C)CCCC1.O=S(=O)([N-]S(=O)(=O)C(F)(F)F)C(F)(F)F the listed activity coefficient is 0.61

###

assay: activity coefficient (dimensionless); of the first substance listed, at infinite dilution; xn = mol fraction of the nth substance listed; conditions: 322.6 K; 101 kPa; Liquid; Chromatography; x1 = 0
Binning rule for recorded activity coefficient: low (below 1), mid (1 to below 2), high (2 or more)

COMPOUND: Cc1ccccc1 [toluene] + CCCCCCCCCC[N+]1(C)CCCC1.O=S(=O)([N-]S(=O)(=O)C(F)(F)F)C(F)(F)F
ANSWER LABEL: low
//
COMPOUND: C#CCCCC [1-hexyne] + CCCCCCCCCC[N+]1(C)CCCC1.O=S(=O)([N-]S(=O)(=O)C(F)(F)F)C(F)(F)F
ANSWER LABEL: mid
//
COMPOUND: CO [methanol] + CCCCCCCCCC[N+]1(C)CCCC1.O=S(=O)([N-]S(=O)(=O)C(F)(F)F)C(F)(F)F
ANSWER LABEL: mid

Next, consider the following compound.
Ask | Lab log: CCC(=O)CC [pentan-3-one] + CCCCCCCCCC[N+]1(C)CCCC1.O=S(=O)([N-]S(=O)(=O)C(F)(F)F)C(F)(F)F — assign activity coefficient category
Reply | low

###

experiment: activity coefficient (dimensionless); of the first substance listed, at infinite dilution; xn = mol fraction of the nth substance listed; settings: 333 K; 101 kPa; Liquid; Chromatography; x1 = 0
The molecules listed here are annotated with their activity coefficient.
Give the value as a plain number.

Below: 8 molecules and their reported activity coefficient.
MOLECULE: CC(C)CO [2-methyl-1-propanol] + CCCCCCCC[N+]1(C)CCCC1.O=S(=O)([N-]S(=O)(=O)C(F)(F)F)C(F)(F)F
QUANTITATIVE READOUT: 1.44
--
MOLECULE: ClCCl [dichloromethane] + CCCCCCCC[N+]1(C)CCCC1.O=S(=O)([N-]S(=O)(=O)C(F)(F)F)C(F)(F)F
QUANTITATIVE READOUT: 0.27
--
MOLECULE: CCCCCCC [heptane] + CCCCCC[N+]1(C)CCCC1.O=S(=O)([N-]S(=O)(=O)C(F)(F)F)C(F)(F)F
QUANTITATIVE READOUT: 9.43
--
MOLECULE: CCCCCC [hexane] + CCCCCCCC[N+]1(C)CCCC1.O=S(=O)([N-]S(=O)(=O)C(F)(F)F)C(F)(F)F
QUANTITATIVE READOUT: 4.8
--
MOLECULE: Cc1ccccc1C [1,2-dimethylbenzene] + CCCCCC[N+]1(C)CCCC1.O=S(=O)([N-]S(=O)(=O)C(F)(F)F)C(F)(F)F
QUANTITATIVE READOUT: 1.28
--
MOLECULE: C#CCCCCC [1-heptyne] + CCCCCCCC[N+]1(C)CCCC1.O=S(=O)([N-]S(=O)(=O)C(F)(F)F)C(F)(F)F
QUANTITATIVE READOUT: 1.89
--
MOLECULE: CC1CCCC1 [methylcyclopentane] + CCCCCC[N+]1(C)CCCC1.O=S(=O)([N-]S(=O)(=O)C(F)(F)F)C(F)(F)F
QUANTITATIVE READOUT: 4.52
--
MOLECULE: CC1CCCCC1 [methylcyclohexane] + CCCCCCCC[N+]1(C)CCCC1.O=S(=O)([N-]S(=O)(=O)C(F)(F)F)C(F)(F)F
QUANTITATIVE READOUT: 4.04

For record CCc1ccccc1 [ethylbenzene] + CCCCCC[N+]1(C)CCCC1.O=S(=O)([N-]S(=O)(=O)C(F)(F)F)C(F)(F)F the listed activity coefficient is 1.43

For record CC1CCCC1 [methylcyclopentane] + CCCCCCCC[N+]1(C)CCCC1.O=S(=O)([N-]S(=O)(=O)C(F)(F)F)C(F)(F)F the listed activity coefficient is 3.36

For record c1ccccc1 [benzene] + CCCCCC[N+]1(C)CCCC1.O=S(=O)([N-]S(=O)(=O)C(F)(F)F)C(F)(F)F the listed activity coefficient is 0.77

For record CCCC(C)=O [pentan-2-one] + CCCCCCCC[N+]1(C)CCCC1.O=S(=O)([N-]S(=O)(=O)C(F)(F)F)C(F)(F)F the listed activity coefficient is 0.51

For record C1COCCO1 [1,4-dioxane] + CCCCCC[N+]1(C)CCCC1.O=S(=O)([N-]S(=O)(=O)C(F)(F)F)C(F)(F)F the listed activity coefficient is 0.42

For record Cc1ccccc1C [1,2-dimethylbenzene] + CCCCCCCC[N+]1(C)CCCC1.O=S(=O)([N-]S(=O)(=O)C(F)(F)F)C(F)(F)F the listed activity coefficient is 0.87

###

experiment: activity coefficient (dimensionless); of the first substance listed, at infinite dilution; xn = mol fraction of the nth substance listed; conditions: 323 K; 101 kPa; Liquid; Chromatography; x1 = 0
ENDPOINT LABEL: activity coefficient

Below: 3 molecules and their reported activity coefficient.
MOLECULE: CCOCC [diethyl ether] + CCCCCCCC[N+]1(C)CCCC1.O=S(=O)([N-]S(=O)(=O)C(F)(F)F)C(F)(F)F
activity coefficient: 1.34
//
MOLECULE: CC1CCCC1 [methylcyclopentane] + CCCCCCCC[N+]1(C)CCCC1.O=S(=O)([N-]S(=O)(=O)C(F)(F)F)C(F)(F)F
activity coefficient: 3.13
//
MOLECULE: CCC(C)CC [3-methylpentane] + CCCCCCCC[N+]1(C)CCCC1.O=S(=O)([N-]S(=O)(=O)C(F)(F)F)C(F)(F)F
activity coefficient: 4.61

Consider the additional molecule presented here.
For record CCCCCCCC [octane] + CCCCCCCC[N+]1(C)CCCC1.O=S(=O)([N-]S(=O)(=O)C(F)(F)F)C(F)(F)F the listed activity coefficient is 8.1
